B1: FBF1 (parent)
chain: LQRASILDMRRDHEEQLQRLKLLK

# Variants of: B1
# PROTOCOL DESCRIPTION: protein stability index of a GFP-peptide fusion (GPS, HEK-293T) (PSI 1-6); higher = more stable;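 also: lentivirally expressed fusions sorted by FACS into six bins by GFP to DsRed ratio, PSI derived from sequencing read proportions per bin multiplied by bin number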
# EXPERIMENTAL CONTEXT: c terminus: a fixed tail appended
Classify as follows. Reported protein stability index greater than or equal to 3: Condition met. Reported protein stability index below: Condition not met.

Examples from the recorded data:
INSERT INTO measurements (mutation_string, classification) VALUES
  ('L1T', 'Condition met'),
  ('R3A', 'Condition met'),
  ('M9S', 'Condition met'),
  ('M9G', 'Condition met');

Query: Dear colleague, could you confirm whether D12E has protein stability index at or above 3?
Reply: Condition met

Query: Dear colleague, could you confirm whether I6M has protein stability index at or above 3?
Reply: Condition met

Query: Dear colleague, could you confirm whether E15F has protein stability index at or above 3?
Reply: Condition not met

Query: Dear colleague, could you confirm whether H13N has protein stability index at or above 3?
Reply: Condition met

Query: Dear colleague, could you confirm whether L7Y has protein stability index at or above 3?
Reply: Condition met

Query: Dear colleague, could you confirm whether R11G has protein stability index at or above 3?
Reply: Condition met

Query: Dear colleague, could you confirm whether K24F has protein stability index at or above 3?
Reply: Condition not met

Query: Dear colleague, could you confirm whether K21A has protein stability index at or above 3?
Reply: Condition met

Query: Dear colleague, could you confirm whether M9C has protein stability index at or above 3?
Reply: Condition not met

Query: Dear colleague, could you confirm whether Q18K has protein stability index at or above 3?
Reply: Condition met

Query: Dear colleague, could you confirm whether K21W has protein stability index at or above 3?
Reply: Condition not met

Query: Dear colleague, could you confirm whether Q16H has protein stability index at or above 3?
Reply: Condition not met

Query: Dear colleague, could you confirm whether L7F has protein stability index at or above 3?
Reply: Condition not met

Query: Dear colleague, could you confirm whether L17F has protein stability index at or above 3?
Reply: Condition met

Query: Dear colleague, could you confirm whether I6N has protein stability index at or above 3?
Reply: Condition met

Query: Dear colleague, could you confirm whether M9F has protein stability index at or above 3?
Reply: Condition met

Query: Dear colleague, could you confirm whether L7T has protein stability index at or above 3?
Reply: Condition met

Query: Dear colleague, could you confirm whether K21F has protein stability index at or above 3?
Reply: Condition not met

Reference source for all entries: the supplement of paper PMC10567573
